# target_under_test: T1, AXL on A431 cells (Homo sapiens, UniProt P30530)
# T1 construct: AXL-positive A431 cells were incubated; endogenous in cells; host or cells: A431
# protocol_notes: Antibody binding to A431 cells with or without Gas6 pre-incubation
# condition_details: pre-incubation with 10 µg/mL Gas6
measured_quantity: Antibody binding to A431 cells: EC50 in presence of Gas6 (µg/mL) mean (s.d.)

Please look up its Antibody binding to A431 cells: EC50 in presence of Gas6 (µg/mL) mean (s.d.): IgG1-AXL-148: AXL-specific human IgG1,κ antibody, VH SEQ ID NO:5, VL SEQ ID NO:6, Ig2 domain binding (antibody, listed as Homo sapiens, V domains shown) VH: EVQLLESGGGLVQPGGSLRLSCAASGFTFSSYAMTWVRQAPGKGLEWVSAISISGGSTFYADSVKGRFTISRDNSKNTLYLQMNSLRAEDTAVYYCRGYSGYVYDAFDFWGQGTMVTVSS VL: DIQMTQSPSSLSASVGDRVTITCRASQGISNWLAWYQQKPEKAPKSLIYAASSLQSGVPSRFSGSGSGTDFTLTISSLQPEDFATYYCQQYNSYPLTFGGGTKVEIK
0.20 (0.30) µg/mL

Source listed as patent US20230321261A1.
